biological target: Human MAO-A (Homo sapiens, UniProt P21397); test: MAO-A inhibition (Amplex Red continuous fluorescence assay); assay type: biochemical; conditions: 30 min pre-incubation at room temp; substrate tyramine; read-out: Human MAO-A IC50
Sequence (P21397 whole entry): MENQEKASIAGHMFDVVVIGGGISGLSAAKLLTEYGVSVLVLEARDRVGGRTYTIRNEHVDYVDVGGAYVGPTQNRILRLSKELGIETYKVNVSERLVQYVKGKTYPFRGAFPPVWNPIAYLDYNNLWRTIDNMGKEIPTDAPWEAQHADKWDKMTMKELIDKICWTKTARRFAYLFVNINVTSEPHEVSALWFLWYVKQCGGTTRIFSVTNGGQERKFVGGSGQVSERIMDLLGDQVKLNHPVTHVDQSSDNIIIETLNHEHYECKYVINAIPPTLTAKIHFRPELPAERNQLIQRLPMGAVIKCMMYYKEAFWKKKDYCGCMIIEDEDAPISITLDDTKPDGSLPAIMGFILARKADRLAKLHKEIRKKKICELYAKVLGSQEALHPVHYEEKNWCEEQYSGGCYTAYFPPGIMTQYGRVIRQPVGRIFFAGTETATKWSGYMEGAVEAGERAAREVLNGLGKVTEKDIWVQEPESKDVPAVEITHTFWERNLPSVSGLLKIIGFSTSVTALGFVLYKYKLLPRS
Structures can show the parent of a compound that is named as a salt.
IC50 values, listed per item

Worked examples, 8 compounds total:
COMPOUND	VALUE_REPORTED
NC/C(=C\F)COc1ccc(-c2ncccn2)cc1 [Compound 37, hydrochloride]	3 to 10 µM
NC/C(=C\F)COc1ccc(-c2nc3ccccc3[nH]2)cc1 [Compound 10, hydrochloride]	> 10 µM
CCNC(=O)N(C)c1ccc(OC/C(=C/F)CN)cc1 [Compound 23, hydrochloride]	> 10 µM
Cn1ccc(-c2ccc(OC/C(=C\F)CN)cc2)n1 [Compound 54, hydrochloride]	3 to 10 µM
NC/C(=C/F)COc1ccc(-c2cocn2)cc1 [Compound 30, hydrochloride]	< 3 µM
NC/C(=C/F)COc1ccc(-c2ccccc2)cc1 [Compound 34, hydrochloride]	< 3 µM
NC/C(=C\F)CN1CCc2ccccc21 [Compound 62, hydrochloride]	> 10 µM
NC/C(=C\F)COc1ccc(-c2ccccc2)cc1 [Compound 33, hydrochloride]	< 3 µM

Please turn your attention to the following entry.
Per the records, this compound ( NC/C(=C\F)COc1cccc2c1OCO2 [Compound 14, hydrochloride] ) has IC50 equal to < 3 µM

====

target: Human MAO-B (Homo sapiens); experiment: MAO-B inhibition (Amplex Red continuous fluorescence assay); type: biochemical; settings: 30 min pre-incubation at room temp; substrate benzylamine; read-out: Human MAO-B IC50
pIC50: −log10 of the molar value. Where a name gives a salt, the structure may show the parent alone.
pIC50 values, listed per item

COMPOUND	ASSAY_TARGET	VALUE_REPORTED
NC/C(=C\F)CNc1ccccc1 [Compound 3, hydrochloride]	Human MAO-B (Homo sapiens)	> 5.52
NC/C(=C/F)COc1ccc(-c2ccccc2)cc1 [Compound 34, hydrochloride]	Human MAO-B (Homo sapiens)	> 5.52

Per the records, this compound ( "CCNC(=O)N(C)c1ccc(NC/C(=C\F)CN)cc1" ) has pIC50 equal to 5.00 to 5.52

Per the records, this compound ( "CCC(=O)Nc1ccc(OC/C(=C/F)CN)cc1" ) has pIC50 equal to > 5.52

Per the records, this compound ( NC/C(=C\F)COc1ccc(C(=O)NCCOCCOCCOCCNC(=O)CCCCC2SCC3NC(=O)NC32)cc1 (centres unmarked) ) has pIC50 equal to 5.00 to 5.52

====

molecular target: UniProt Q16853; assay: VAP-1 inhibition assay (Amplex Red continuous fluorescence assay); assay type: biochemical
Sequence (Q16853 whole entry): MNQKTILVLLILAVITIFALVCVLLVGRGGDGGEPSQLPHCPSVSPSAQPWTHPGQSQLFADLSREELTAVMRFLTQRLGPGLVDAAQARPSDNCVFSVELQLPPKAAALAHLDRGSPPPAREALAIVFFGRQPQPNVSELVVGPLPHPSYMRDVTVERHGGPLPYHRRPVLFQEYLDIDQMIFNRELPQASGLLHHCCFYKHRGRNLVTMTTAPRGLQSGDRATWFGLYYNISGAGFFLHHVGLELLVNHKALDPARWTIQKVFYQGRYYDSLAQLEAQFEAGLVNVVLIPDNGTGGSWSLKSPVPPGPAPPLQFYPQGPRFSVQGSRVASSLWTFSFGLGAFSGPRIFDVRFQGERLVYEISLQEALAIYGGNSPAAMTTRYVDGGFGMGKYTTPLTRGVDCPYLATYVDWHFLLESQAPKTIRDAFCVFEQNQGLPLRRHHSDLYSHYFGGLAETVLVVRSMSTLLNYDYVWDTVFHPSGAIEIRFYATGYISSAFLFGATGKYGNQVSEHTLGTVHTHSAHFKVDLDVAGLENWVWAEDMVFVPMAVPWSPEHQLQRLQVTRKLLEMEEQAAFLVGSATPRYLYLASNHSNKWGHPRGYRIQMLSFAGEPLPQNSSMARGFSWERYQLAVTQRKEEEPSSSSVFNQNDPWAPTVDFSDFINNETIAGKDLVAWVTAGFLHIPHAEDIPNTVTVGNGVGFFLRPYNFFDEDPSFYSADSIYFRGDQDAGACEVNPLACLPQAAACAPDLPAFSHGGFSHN
pIC50: −log10 of the molar value. Counter-ions that a name gives are not always drawn.
EXPERIMENTAL_READOUT: pIC50

Per the records, this compound ( NC/C(=C\F)CNC(=O)Oc1ccccc1 [Compound 47, hydrochloride] ) has pIC50 equal to > 5.52

====

IC50 values, listed per item
Biological target: Human MAO-B (Homo sapiens)
Sequence (P27338 1-520): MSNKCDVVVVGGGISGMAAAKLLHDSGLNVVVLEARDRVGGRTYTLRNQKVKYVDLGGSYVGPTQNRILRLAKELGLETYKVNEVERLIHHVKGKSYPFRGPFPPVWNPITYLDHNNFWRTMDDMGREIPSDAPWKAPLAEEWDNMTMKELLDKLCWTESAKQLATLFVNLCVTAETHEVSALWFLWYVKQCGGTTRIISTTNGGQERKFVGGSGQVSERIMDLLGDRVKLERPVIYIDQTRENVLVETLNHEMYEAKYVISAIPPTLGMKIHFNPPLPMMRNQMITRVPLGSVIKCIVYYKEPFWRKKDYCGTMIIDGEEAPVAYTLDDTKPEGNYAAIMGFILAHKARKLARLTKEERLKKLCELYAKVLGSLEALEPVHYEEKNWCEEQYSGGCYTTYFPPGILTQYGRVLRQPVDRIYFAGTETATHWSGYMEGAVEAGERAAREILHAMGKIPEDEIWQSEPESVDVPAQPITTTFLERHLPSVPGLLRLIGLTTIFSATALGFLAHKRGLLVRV
Assay: MAO-B inhibition (Amplex Red continuous fluorescence assay)
Format: biochemical
Conditions: 30 min pre-incubation at room temp; substrate benzylamine; read-out: Human MAO-B IC50
Structures can show the parent of a compound that is named as a salt.

Worked examples, 5 compounds total:
COMPOUND	VALUE_REPORTED
NC/C(=C\F)COc1cccc2scnc12 [Compound 8, hydrochloride]	< 3 µM
NC/C(=C\F)CNS(=O)(=O)c1ccccc1 [Compound 17, hydrochloride]	> 10 µM
CCOC(=O)Nc1ccc(OC/C(=C/F)CN)cc1	< 3 µM
NC/C(=C\F)CNCc1ccccc1	< 3 µM
NC/C(=C\F)COc1ccc(-c2ccn[nH]2)cc1 [Compound 42, hydrochloride]	< 3 µM

Reported Human MAO-B (Homo sapiens) IC50 for item "NC/C(=C\F)COc1ccc(C2=NCCN2)cc1" was > 10 µM

Reported Human MAO-B (Homo sapiens) IC50 for item NC/C(=C\F)COc1ccc(-c2ccccc2)cc1 [Compound 33, hydrochloride] was < 3 µM

Reported Human MAO-B (Homo sapiens) IC50 for item CC(=O)N(C/C(=C/F)CN)c1ccccc1 [Compound 1, hydrochloride] was > 10 µM

Reported Human MAO-B (Homo sapiens) IC50 for item NC/C(=C/F)COCc1ccccc1 [Compound 6, hydrochloride] was < 3 µM

Reported Human MAO-B (Homo sapiens) IC50 for item NC/C(=C\F)COc1ccc(-c2nccs2)cc1 [Compound 19, hydrochloride] was < 3 µM

Reported Human MAO-B (Homo sapiens) IC50 for item NC/C(=C/F)COc1ccc(-c2ncco2)cc1 [Compound 53, hydrochloride] was < 3 µM

Reported Human MAO-B (Homo sapiens) IC50 for item NC/C(=C\F)COc1ccc(-c2ncccn2)cc1 [Compound 37, hydrochloride] was < 3 µM

Reported Human MAO-B (Homo sapiens) IC50 for item NC/C(=C\F)COCc1ccccc1 [Compound 5, hydrochloride] was < 3 µM

Reported Human MAO-B (Homo sapiens) IC50 for item "CC(C)(C)NC(=O)c1cccc2c1ccn2CC(=CF)CN" was < 3 µM

Reported Human MAO-B (Homo sapiens) IC50 for item CCN(CC)C(=O)Nc1ccc(OC/C(=C/F)CN)cc1 [Compound 24, hydrochloride] was < 3 µM

Reported Human MAO-B (Homo sapiens) IC50 for item NCC(=CF)CN1CCCCC1 (mixture of isomers) was > 10 µM

Reported Human MAO-B (Homo sapiens) IC50 for item NC/C(=C\F)COc1ccc(-c2ncon2)cc1 [Compound 43, hydrochloride] was < 3 µM
